Below, each entry is listed alongside its reported pIC50.
- target_or_system: human V1a receptor (Homo sapiens, UniProt P37288)
- Construct: host or cells: CHO cells
- Sequence (P37288 whole entry): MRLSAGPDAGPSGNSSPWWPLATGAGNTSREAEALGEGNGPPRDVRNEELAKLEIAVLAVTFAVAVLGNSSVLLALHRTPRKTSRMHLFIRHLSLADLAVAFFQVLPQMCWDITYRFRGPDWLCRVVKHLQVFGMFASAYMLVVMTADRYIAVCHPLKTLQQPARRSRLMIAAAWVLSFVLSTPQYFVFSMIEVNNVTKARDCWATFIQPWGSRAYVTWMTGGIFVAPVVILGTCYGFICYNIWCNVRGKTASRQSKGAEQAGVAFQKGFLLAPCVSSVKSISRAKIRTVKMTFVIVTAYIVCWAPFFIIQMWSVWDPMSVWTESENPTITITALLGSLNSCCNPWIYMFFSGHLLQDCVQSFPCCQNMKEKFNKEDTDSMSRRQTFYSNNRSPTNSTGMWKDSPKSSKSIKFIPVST
- protocol_details: Human vasopressin V1a receptor binding assay
- assay_context: hV1a CHO cell line, competition with 1 nM 3H-AVP; read-out: V1a Binding Affinity IC50
Convention used: pIC50 is expressed as -log10 of the molar concentration.

Known pIC50 results, listed for orientation:
For record O=C(NCc1cccc(C(F)(F)F)c1)[C@H](CC(=O)N1CCN(C2CCCCC2)CC1)N1C(=O)[C@@H](N2C(=O)OC[C@@H]2c2ccccc2)[C@H]1/C=C/c1ccccc1 the listed pIC50 is 7.30

For record O=C(NC1CCCc2ccccc21)C(CCC(=O)N1CCN(C2CCCCC2)CC1)N1C(=O)C(N2C(=O)OCC2c2ccccc2)C1C=Cc1ccccc1Cl (centres unmarked) the listed pIC50 is 8.19

For record O=C(CCC(C(=O)NCc1cccc(C(F)(F)F)c1)N1C(=O)C(N2C(=O)OCC2c2ccccc2)C1C=Cc1ccccc1)NCCN1CCCCC1 (centres unmarked) the listed pIC50 is 7.82

More entries:
For record CC(NC(=O)C(CC(=O)N1CCC(N2CCCCC2)CC1)N1C(=O)C(N2C(=O)OCC2c2ccccc2)C1CCc1cccc(Cl)c1)c1ccccc1 (centres unmarked) the listed pIC50 is 9.92

For record O=C(NC1CCc2ccccc21)C(CCC(=O)N1CCN(C2CCCCC2)CC1)N1C(=O)C(N2C(=O)OCC2c2ccccc2)C1C=Cc1ccccc1 (centres unmarked) [Example 221R] the listed pIC50 is 8.29

For record O=C(NC1CCCc2ccccc21)C(CCC(=O)N1CCN(C2CCCCC2)CC1)N1C(=O)C(N2C(=O)OCC2c2ccccc2)C1C=Cc1cc(Cl)cc(Cl)c1 (centres unmarked) the listed pIC50 is 8.74

----------
- target_or_system: human V1a receptor (Homo sapiens, UniProt P37288)
- Construct: host or cells: CHO cells
- protocol_details: Human vasopressin V1a receptor binding assay
- assay_context: selectivity table; read-out: inhibition data Ki, V1a
observation_type: pKi
Convention used: pKi is expressed as -log10 of the molar concentration.

For record C[C@@H](NC(=O)[C@@H](CC(=O)N1CCC(N2CCCCC2)CC1)N1C(=O)[C@@H](N2C(=O)OC[C@@H]2c2ccccc2)[C@H]1/C=C/c1cccc(I)c1)c1ccccc1 the listed pKi is 8.96

----------
- target_or_system: human V1a receptor (Homo sapiens, UniProt P37288)
- Construct: host or cells: CHO cells
- protocol_details: Human vasopressin V1a receptor binding assay
- assay_context: hV1a CHO cell line, competition with 1 nM 3H-AVP; read-out: V1a Ki
Checkbox rule: Ki lower than 0.7 nM = criterion met; Ki not lower than 0.7 nM = criterion not met.

*Q* Is the reported Ki for O=C(NCc1cc(Cl)cc(Cl)c1)C(CCC(=O)N1CCN(C2CCCCC2)CC1)N1C(=O)C(N2C(=O)OCC2c2ccccc2)C1C=Cc1ccccc1 (centres unmarked) [Example 174] strictly below 0.7 nM?
*A* criterion not met

*Q* Is the reported Ki for O=C(NC1CCCc2ccccc21)C(CCC(=O)N1CCN(C2CCCCC2)CC1)N1C(=O)C(N2C(=O)OCC2c2ccccc2)C1C=Cc1cccc([N+](=O)[O-])c1 (centres unmarked) [Example 249] strictly below 0.7 nM?
*A* criterion not met

*Q* Is the reported Ki for O=C(NC1CCCc2ccccc21)C(CCC(=O)N1CCN(C2CCCCC2)CC1)N1C(=O)C(N2C(=O)OCC2c2ccccc2)C1C=Cc1cccc(Cl)c1 (centres unmarked) [Example 243] strictly below 0.7 nM?
*A* criterion met

*Q* Is the reported Ki for O=C(NCc1ccccc1F)C(CC(=O)N1CCC(N2CCCCC2)CC1)N1C(=O)C(N2C(=O)OCC2c2ccccc2)C1CCc1ccccc1 (centres unmarked) [Example 677] strictly below 0.7 nM?
*A* criterion not met

*Q* Is the reported Ki for CC(NC(=O)C(CCC(=O)N1CCN(C2CCCCC2)CC1)N1C(=O)C(N2C(=O)OCC2c2ccccc2)C1C=Cc1ccccc1)c1ccccc1 (centres unmarked) [Example 206] strictly below 0.7 nM?
*A* criterion not met

*Q* Is the reported Ki for O=C(NCc1cccc(C(F)(F)F)c1)C(CC(=O)N1CCN(N2CCCC2)CC1)N1C(=O)C(N2C(=O)OCC2c2ccccc2)C1C=Cc1ccccc1 (centres unmarked) [Example 134B] strictly below 0.7 nM?
*A* criterion not met

More entries:
*Q* Is the reported Ki for Cc1cccc(CCC2C(N3C(=O)OCC3c3ccccc3)C(=O)N2C(CC(=O)N2CCC(N3CCCCC3)CC2)C(=O)NC(C)c2ccccc2)c1 (centres unmarked) [Example 778] strictly below 0.7 nM?
*A* criterion met

*Q* Is the reported Ki for O=C(NCc1ccccc1)C(CCC(=O)N1CCN(C2CCCCC2)CC1)N1C(=O)C(N2C(=O)OCC2c2ccccc2)C1C=Cc1ccccc1 (centres unmarked) [Example 191] strictly below 0.7 nM?
*A* criterion not met

*Q* Is the reported Ki for CC(NC(=O)C(CC(=O)N1CCC(N2CCCCC2)CC1)N1C(=O)C(N2C(=O)OCC2c2ccccc2)C1CCc1cccc(N)c1)c1ccccc1 (centres unmarked) [Example 600] strictly below 0.7 nM?
*A* criterion not met

*Q* Is the reported Ki for O=C(NC1CCCc2ccccc21)C(CCC(=O)N1CCN(C2CCCCC2)CC1)N1C(=O)C(N2C(=O)OCC2c2cccc(Cl)c2)C1C=Cc1cccc(Cl)c1 (centres unmarked) [Example 251] strictly below 0.7 nM?
*A* criterion met

*Q* Is the reported Ki for O=C(NC(c1ccccc1)C(F)(F)F)C(CC(=O)N1CCC(N2CCCCC2)CC1)N1C(=O)C(N2C(=O)OCC2c2ccccc2)C1CCc1ccccc1 (centres unmarked) [Example 626] strictly below 0.7 nM?
*A* criterion met

*Q* Is the reported Ki for CC(NC(=O)C(CC(=O)N1CCC(N2CCCCC2)CC1)N1C(=O)C(N2C(=O)OCC2c2ccccc2)C1CCc1cccc([N+](=O)[O-])c1)c1ccccc1 (centres unmarked) [Example 597] strictly below 0.7 nM?
*A* criterion not met

*Q* Is the reported Ki for O=C(NCc1cccc(C(F)(F)F)c1)C(CCC(=O)N1CCN(C2CCCCC2)CC1)N1C(=O)C(N2C(=O)OCC2c2ccccc2)C1C=Cc1ccccc1 (centres unmarked) [Example 120H] strictly below 0.7 nM?
*A* criterion not met

*Q* Is the reported Ki for O=C(NC1CCCc2ccccc21)C(CCC(=O)N1CCN(C2CCCC2)CC1)N1C(=O)C(N2C(=O)OCC2c2ccccc2)C1C=Cc1ccccc1 (centres unmarked) [Example 241] strictly below 0.7 nM?
*A* criterion not met

----------
Below, each entry is listed alongside its reported IC50.
- target_or_system: human V1a receptor (Homo sapiens)
- Construct: host or cells: CHO cells
- protocol_details: Human vasopressin V1a receptor binding assay
- assay_context: hV1a CHO cell line, competition with 1 nM 3H-AVP; read-out: V1a Binding Affinity IC50
Field note: include the unit after the figure.

Known IC50 results, listed for orientation:
For record O=C(NC1CCCc2ccccc21)C(CCC(=O)N1CCN(C2CCCCC2)CC1)N1C(=O)C(N2C(=O)OCC2c2ccccc2)C1C=Cc1cccc(Cl)c1 (stereo not drawn) the listed IC50 is 0.5 nM

For record O=C(NCc1cccc(C(F)(F)F)c1)[C@H](CCC(=O)N1CCN(N2CCCC2)CC1)N1C(=O)[C@@H](N2C(=O)OC[C@@H]2c2ccccc2)[C@H]1/C=C/c1ccccc1 the listed IC50 is 3.24 nM

For record O=C(NCc1cccc(OC(F)(F)F)c1)C(CCC(=O)N1CCN(C2CCCCC2)CC1)N1C(=O)C(N2C(=O)OCC2c2ccccc2)C1C=Cc1ccccc1 (stereo not drawn) the listed IC50 is 4.5 nM

For record O=C(NCc1cccc(Cl)c1)C(CCC(=O)N1CCN(C2CCCCC2)CC1)N1C(=O)C(N2C(=O)OCC2c2ccccc2)C1C=Cc1ccccc1 (stereo not drawn) the listed IC50 is 1 nM

Continue with the compound presented below.
For record O=C(NC1CCCc2ccccc21)C(CCC(=O)N1CCN(C2CCCCC2)CC1)N1C(=O)C(N2C(=O)OCC2c2cccc(Cl)c2)C1C=Cc1cccc(Cl)c1 (stereo not drawn) the listed IC50 is 0.5 nM

----------
- target_or_system: human V1a receptor (Homo sapiens)
- Construct: host or cells: CHO cells
- protocol_details: Human vasopressin V1a receptor binding assay
- assay_context: hV1a CHO cell line, competition with 1 nM 3H-AVP; read-out: V1a Binding Affinity IC50
observation_type: pIC50
Convention used: pIC50 is expressed as -log10 of the molar concentration.

For record O=C(NCc1cc(C(F)(F)F)cc(C(F)(F)F)c1)C(CCC(=O)N1CCN(C2CCCCC2)CC1)N1C(=O)C(N2C(=O)OCC2c2ccccc2)C1C=Cc1ccccc1 (stereo not drawn) the listed pIC50 is 8.14

For record O=C(NCc1ccncc1)C(CCC(=O)N1CCN(C2CCCCC2)CC1)N1C(=O)C(N2C(=O)OCC2c2ccccc2)C1C=Cc1ccccc1 (stereo not drawn) the listed pIC50 is 7.53

For record O=C(NC1(c2ccccc2)CCCC1)C(CCC(=O)N1CCN(Cc2ccccc2)CC1)N1C(=O)C(N2C(=O)OCC2c2ccccc2)C1C=Cc1ccccc1 (stereo not drawn) the listed pIC50 is 7.60

More entries:
For record COc1cccc(C=CC2C(N3C(=O)OCC3c3ccccc3)C(=O)N2C(CCC(=O)N2CCN(C3CCCCC3)CC2)C(=O)NC2CCCc3ccccc32)c1 (stereo not drawn) the listed pIC50 is 8.66

For record O=C(NCc1cccc(Cl)c1Cl)C(CCC(=O)N1CCN(C2CCCCC2)CC1)N1C(=O)C(N2C(=O)OCC2c2ccccc2)C1C=Cc1ccccc1 (stereo not drawn) the listed pIC50 is 9.21
